Test system: HepG2
Assay: cytotoxicity call (relative viability < 0.9)
Conditions: 10 µM
Hit rate of the full screen: of about 39,000 compounds, about 3,300 (8.5%) were called active. This excerpt belongs to a sample that is enriched for actives.
Classes used: active, inactive

- COc1ccccc1CNC(=O)C[C@H]1C[C@H]2c3cc(NC(=O)Nc4ccc(C(F)(F)F)cc4)ccc3O[C@H]2[C@@H](CO)O1: inactive
- C[C@@H]1CN([C@H](C)CO)C(=O)Cc2cc(NC(=O)NC3CCCCC3)ccc2O[C@H]1CN(C)Cc1ccc(Oc2ccccc2)cc1: inactive
- Nc1ncnc2c1ncn2C1OC(CO)C(O)C1O (stereo not drawn): inactive
- COc1nc(N)nc2c1ncn2[C@@H]1O[C@H](CO)[C@@H](O)[C@@H]1O: inactive
- COc1ccc(C[C@H](N)C(=O)N[C@H]2[C@@H](O)[C@@H](n3cnc4c(N(C)C)ncnc43)O[C@@H]2CO)cc1: active
- Nc1ccc(CCNc2ncnc3c2ncn3[C@@H]2O[C@H](CO)[C@@H](O)[C@H]2O)cc1: inactive
- C[C@H](CO)N1C[C@H](C)[C@H](CN(C)Cc2ccc(Oc3ccccc3)cc2)Oc2ccc(NC(=O)NC3CCCCC3)cc2CC1=O: inactive
- C[C@H]1CN([C@@H](C)CO)C(=O)c2cc(NC(=O)C3CCCCC3)ccc2O[C@@H]1CN(C)Cc1ccc(C(F)(F)F)cc1: inactive

###

Tested on: HepG2
Experiment: cytotoxicity call (relative viability < 0.9)
Details: 10 µM
The campaign covered roughly 39,000 compounds. About 3,300 (8.5%) were called active. The sample holds actives, similar compounds and a random draw of the others, so the mix is not that of the screen.
Classes used: active, inactive

• C=C(C)[C@]1(O)OC(=O)C=C1OC = inactive
• C[C@@H]1CN([C@@H](C)CO)C(=O)c2cc(NC(=O)Nc3ccc4c(c3)OCO4)ccc2O[C@@H](C)CCCCO[C@@H]1CN(C)CC1CCCCC1 = inactive
• O=C1C[C@]2(c3ccc([N+](=O)[O-])cc3)C(=O)N(CC(F)(F)F)c3cc(CO)ccc3[C@H]2N1CC12CC3CC(CC(C3)C1)C2 = inactive
• C[C@H]1CN([C@@H](C)CO)C(=O)c2cccc(NC(=O)Nc3cccc4ccccc34)c2O[C@H]1CN(C)C(=O)NC1CCCCC1 = inactive
• CC[C@@H](C)NCCCCOc1ccc(Cl)cc1C(C)(C)C = active
• CCOc1ccccc1OCCNC(C)Cc1ccc(OC)c(S(N)(=O)=O)c1.Cl (stereo unspecified) = inactive
• C[C@@H]1CN([C@@H](C)CO)C(=O)c2cc(NC(=O)NC3CCCCC3)ccc2O[C@@H](C)CCCCO[C@@H]1CN(C)S(=O)(=O)c1ccc(Cl)cc1 = inactive
• C[C@@H]1CCCCO[C@@H](CN(C)CC2CCCCC2)[C@H](C)CN([C@@H](C)CO)C(=O)c2cc(NC(=O)Nc3ccc4c(c3)OCO4)ccc2O1 = inactive
• C[C@@H]1CCCCO[C@@H](CN(C)S(=O)(=O)c2ccc(Cl)cc2)[C@H](C)CN([C@@H](C)CO)C(=O)c2cc(NC(=O)NC3CCCCC3)ccc2O1 = inactive
• C#CCN(C)CCCOc1ccc(Cl)cc1Cl.Cl = inactive
• Cc1nn2cc(CN)nc2s1 = inactive
• C[C@H]1CN([C@@H](C)CO)S(=O)(=O)c2ccc(Br)cc2O[C@@H]1CN(C)C(=O)Nc1ccc2c(c1)OCO2 = inactive
• Cc1noc(C)c1NC(=O)N(C)C[C@H]1OCCCC[C@@H](C)Oc2ccc(NC(=O)CCC(F)(F)F)cc2C(=O)N([C@H](C)CO)C[C@H]1C = inactive
• C[C@@H]1CN([C@@H](C)CO)S(=O)(=O)c2ccc(Br)cc2O[C@H]1CN(C)C(=O)Nc1ccc2c(c1)OCO2 = inactive
• C[C@@H]1CN([C@H](C)CO)C(=O)c2cc(NC(=O)NC3CCCCC3)ccc2O[C@@H](C)CCCCO[C@H]1CN(C)S(=O)(=O)c1ccc(Cl)cc1 = active
• Cc1noc(C)c1NC(=O)N(C)C[C@@H]1OCCCC[C@H](C)Oc2ccc(NS(=O)(=O)c3ccc(F)cc3)cc2C(=O)N([C@@H](C)CO)C[C@@H]1C = inactive

These measurements were taken from the antibiotic and cytotoxicity screens of Wong et al. (2023).
